These measurements were taken from patent US10570122B2.

Tested on: PC3
TEST METHOD NOTES: CellTiter-Blue cell-based survival/proliferation assay, PC3
CONDITION SUMMARY: Homo sapiens, PC-3; PC3 prostate tumor cell line, 48 h
pIC50: −log10 of the molar value.
Please go through the items and note down their pIC50.

Challenge: For COc1ccc(C)c(Nc2ncc(-c3ccc(N4CCNC4=O)cc3)s2)c1 [Example 013] , what is its reported pIC50?
Response given: 6.00 to 6.30

Challenge: Next entry: Cc1ccc(C(=O)NCCN2CCOCC2)cc1Nc1ncc(-c2ccc(-n3cccn3)cc2)o1 [Example 005]
Response given: < 6.00

Challenge: How about CCOCc1cc(C)cc(Nc2nc(-c3ccc(N4CCNC4=O)cc3)cs2)c1 [Example 018] ?
Response given: < 6.00

Challenge: Cc1ccc(COCCO)cc1Nc1ncc(-c2ccc(-n3cccn3)cc2)o1 [Example 026] ?
Response given: < 6.00

Challenge: One more compound: Cc1ccc(CO)cc1Nc1ncc(-c2ccc(-n3cccn3)cc2)o1 [Example 027]
Response given: < 6.00

Challenge: Please give the result for CCOCc1ccc(C)c(Nc2ncc(-c3ccc(N4CCN(CCOC)C4=O)cc3)o2)c1 [Example 054] too.
Response given: < 6.00

Challenge: Now the same for CCOCc1cc(Nc2ncc(-c3ccc(N4CCNC4=O)cc3)o2)cc(OCCO)c1 [Example 059]
Response given: ≥ 7.00

Challenge: Can you handle CCOCc1ccc(C)c(Nc2ncc(-c3ccc(-n4cccn4)nc3)o2)c1 [Example 007] next?
Response given: 6.30 to 7.00

Challenge: What about this compound? CCOCc1ccc(C)c(Nc2ncc(-c3ccc(-n4cccn4)cc3)s2)c1 [Example 004]
Response given: < 6.00

Challenge: Now the compound CNC(=O)c1ccc(C)c(Nc2ncc(-c3ccc(-n4cccn4)cc3)o2)c1 [Example 031]
Response given: < 6.00

Challenge: Subsequent entry: Cc1ccc(OCCN2CCOCC2)cc1Nc1ncc(-c2ccc(-n3cccn3)cc2)o1 [Example 029]
Response given: < 6.00

Challenge: Continue with CCOCc1ccc(C)c(Nc2ncc(-c3ccc(N4CCNC4=O)cc3)o2)c1 [Example 006]
Response given: ≥ 7.00

Challenge: And for CCOCc1ccc(C)c(Nc2ncc(-c3ccc(N4CCN(CCN)C4=O)cc3)o2)c1 [Example 045] ?
Response given: < 6.00

Challenge: Try this compound next: CCOCc1ccc(C)c(Nc2ncc(-c3ccc(-n4cccn4)c(OC)c3)o2)c1 [Example 002]
Response given: < 6.00

Challenge: Also check CCOCc1ccc(C)c(Nc2nnc(-c3ccc(-n4cccn4)cc3)o2)c1 [Example 009]
Response given: < 6.00

Challenge: Can you handle CCOCc1ccc(C)c(Nc2ncc(-c3ccc(N4C(=O)NC[C@H]4C)cc3)o2)c1 [Example 051] next?
Response given: ≥ 7.00

Challenge: Would you kindly repeat that for CC(=O)NCCOCc1ccc(C)c(Nc2ncc(-c3ccc(-n4cccn4)cc3)o2)c1 [Example 025] ?
Response given: < 6.00
